system: S9.6 antibody (anti-DNA-RNA hybrid) (mouse); assay: SPR; conditions: single-cycle kinetics, pH 7.0; SPR: 10 mM HEPES pH 7.0, 15 mM MgCl2, 80 mM NaCl, S9.6 on CM5 chip; EMSA: 200 nM nucleic acid, 80 ug/mL S9.6, 30 min room temperature, 6% PAGE in 0.5X TBE

chain	Kd, nM
AAGAAAAGAGAAGAAGAGAACACCTTCTCTTCTTCTCTTTTCTTAGACCCCTATCACGATTAGCATTAA / UUAAUGCUAAUCGUGAUAGGGGU [Switch B (70% TAT)/miR-155 hybrid]	0.144
